Assay: melting temperature; fluorescence melt of hairpins on a sequencing array, two-state fit, raised by 9.35 °C to match UV melts
Settings: sodium 0.088 M

RESIDUE_SEQUENCE: GAAGCCGAAAGGCGCTTC ((((((....)))..)))
Tm / °C: 56.2
--
RESIDUE_SEQUENCE: GCTGGCGAAAGCCTTAGC ((((((....)))..)))
Tm / °C: 44.4
--
RESIDUE_SEQUENCE: GGAACGGGAAACTGTTCC (((((.(....).)))))
Tm / °C: 53
--
RESIDUE_SEQUENCE: CACGGGAAACCGTG (((((....)))))
Tm / °C: 58.8
--
RESIDUE_SEQUENCE: GCACTAGGAAACCAGTGC (((((.(....).)))))
Tm / °C: 48.3
--
RESIDUE_SEQUENCE: GTGTGGGGAAACCCGTAC ((..(((....)))..))
Tm / °C: 33.5
--
RESIDUE_SEQUENCE: GATCATAGCAATGATC ((((((....))))))
Tm / °C: 47.4
--
RESIDUE_SEQUENCE: GATCGTTCCGACGATC ((((((....))))))
Tm / °C: 56.1
--
RESIDUE_SEQUENCE: GATCGCCACTGCGATC ((((((....))))))
Tm / °C: 65.3
--
RESIDUE_SEQUENCE: GCTCTGCGAAAGCCGAGC ((((.((....)).))))
Tm / °C: 60.1
--
RESIDUE_SEQUENCE: GATCTGGGAAACCAGACC (.(((((....))))).)
Tm / °C: 38.5
--
RESIDUE_SEQUENCE: GGGCTTTCGAAAGAACCC (((..(((....))))))
Tm / °C: 35.7

* * *

Assay: folding enthalpy; higher = less favourable; fluorescence melt of hairpins on a sequencing array, two-state fit
Conditions: sodium 0.088 M

RESIDUE_SEQUENCE: GGGTTGCGAAAGCATCCC (((.(((....))).)))
folding enthalpy (kcal/mol): -34.1
--
RESIDUE_SEQUENCE: GTGTATGGAAACATACGC (.(((((....))))).)
folding enthalpy (kcal/mol): -20.1
--
RESIDUE_SEQUENCE: GCTTGCGAAAGCAATAGC ((((((....)))..)))
folding enthalpy (kcal/mol): -15.3
--
RESIDUE_SEQUENCE: GCTTGGCGAAAGCCAGGC ((.((((....)))).))
folding enthalpy (kcal/mol): -23.5
--
RESIDUE_SEQUENCE: GCTGCCGGAAACGACAGC ((((.((....)).))))
folding enthalpy (kcal/mol): -45.7
--
RESIDUE_SEQUENCE: GTAACAGGAAACCGTTAC (((((.(....).)))))
folding enthalpy (kcal/mol): -29.5
--
RESIDUE_SEQUENCE: GGCTTCGAAAGAAGTGCC ((((((....)))..)))
folding enthalpy (kcal/mol): -16.1
--
RESIDUE_SEQUENCE: GGACGTGGAAACGCGTTC (.(((.(....).))).)
folding enthalpy (kcal/mol): -24.2
--
RESIDUE_SEQUENCE: GCGGTGCGAAAGCGCGGC ((.(.((....)).).))
folding enthalpy (kcal/mol): -25
--
RESIDUE_SEQUENCE: GGGAGTCGAAAGACCCC (((.(((....))))))
folding enthalpy (kcal/mol): -32.7
--
RESIDUE_SEQUENCE: GGGGCGACGAAAGTCCCC (((..(((....))))))
folding enthalpy (kcal/mol): -16.4
--
RESIDUE_SEQUENCE: GCACACCGAAAGGTTGC (((.(((....))))))
folding enthalpy (kcal/mol): -28.6
--
RESIDUE_SEQUENCE: GGTTGTCGAAAGACGACC (((.(((....))).)))
folding enthalpy (kcal/mol): -39.9
--
RESIDUE_SEQUENCE: GCCCTGGGAAACTAGGGC (((((.(....).)))))
folding enthalpy (kcal/mol): -44.5
--
RESIDUE_SEQUENCE: GCCATTTCGAAAGAAGGC (((..(((....))))))
folding enthalpy (kcal/mol): -25.1
--
RESIDUE_SEQUENCE: GGGTTGGGAAACCAACTC (.(((((....))))).)
folding enthalpy (kcal/mol): -21.9
--
RESIDUE_SEQUENCE: CGGTCGGAAACGACCCG ((((((....))).)))
folding enthalpy (kcal/mol): -10
--
RESIDUE_SEQUENCE: GCTTACCGAAAGGTCAGC (((.(((....))).)))
folding enthalpy (kcal/mol): -27.8
--
RESIDUE_SEQUENCE: GTCAGTGGAAACATTGAC ((((.((....)).))))
folding enthalpy (kcal/mol): -29.2
--
RESIDUE_SEQUENCE: GTGTGGGGAAACCCGTAC ((..(((....)))..))
folding enthalpy (kcal/mol): -20.8
--
RESIDUE_SEQUENCE: GGTGACGAAAGTCGACC ((((((....))).)))
folding enthalpy (kcal/mol): -23.1
--
RESIDUE_SEQUENCE: GTCAGAGCGAAAGCTGAC (((..(((....))))))
folding enthalpy (kcal/mol): -26.4
--
RESIDUE_SEQUENCE: GGTTTTGCGAAAGCAACC (((..(((....))))))
folding enthalpy (kcal/mol): -11.9
--
RESIDUE_SEQUENCE: GTCGACGAAAGTCGTGAC ((((((....)))..)))
folding enthalpy (kcal/mol): -10
--
RESIDUE_SEQUENCE: GGTTACGGAAACGTAGCC ((.((((....)))).))
folding enthalpy (kcal/mol): -28.6
--
RESIDUE_SEQUENCE: GATCTAGAATTAGATC ((((((....))))))
folding enthalpy (kcal/mol): -35
--
RESIDUE_SEQUENCE: GACGCGGGAAACCACGCC (.((.((....)).)).)
folding enthalpy (kcal/mol): -12.4
--
RESIDUE_SEQUENCE: GGGGTTGGAAACGATCCC (((.(.(....).).)))
folding enthalpy (kcal/mol): -23
--
RESIDUE_SEQUENCE: GGAGACGAAAGTCTGTCC ((((((....)))..)))
folding enthalpy (kcal/mol): -11.2
--
RESIDUE_SEQUENCE: GATCCACACTTGGATC ((((((....))))))
folding enthalpy (kcal/mol): -41.1
--
RESIDUE_SEQUENCE: CGGCCGGAAACGGTCCCG ((((((....)))..)))
folding enthalpy (kcal/mol): -13.1
--
RESIDUE_SEQUENCE: GAGAAGGGAAACCTTCTC (((((((....)))))))
folding enthalpy (kcal/mol): -50.6
--
RESIDUE_SEQUENCE: GTCCATGGAAACACGGAC ((((.((....)).))))
folding enthalpy (kcal/mol): -25
--
RESIDUE_SEQUENCE: GCCTAGCGAAAGCTGCGC ((..(((....)))..))
folding enthalpy (kcal/mol): -17.6
--
RESIDUE_SEQUENCE: GGCCGCGAAAGCGTGGCC ((((((....)))..)))
folding enthalpy (kcal/mol): -22.8
--
RESIDUE_SEQUENCE: GGTCAAGGAAACTTGGTC (..((((....))))..)
folding enthalpy (kcal/mol): -13.9
--
RESIDUE_SEQUENCE: GTCGTGGGAAACCACAAC ((.((((....)))).))
folding enthalpy (kcal/mol): -15.7
--
RESIDUE_SEQUENCE: GATCCCGTCGGGGATC ((((((....))))))
folding enthalpy (kcal/mol): -35.1
--
RESIDUE_SEQUENCE: GATCGCAAACGCGATC ((((((....))))))
folding enthalpy (kcal/mol): -42.1
--
RESIDUE_SEQUENCE: GATCAGCGACTGATC ((((((...))))))
folding enthalpy (kcal/mol): -33.1
--
RESIDUE_SEQUENCE: GAACGGCGAAAGCCATTC (((.(((....))).)))
folding enthalpy (kcal/mol): -16.8
--
RESIDUE_SEQUENCE: TCCATGAAAATGGA (((((....)))))
folding enthalpy (kcal/mol): -17.1
--
RESIDUE_SEQUENCE: GCGTCGCGAAAGCGCGGC ((..(((....)))..))
folding enthalpy (kcal/mol): -12.6
--
RESIDUE_SEQUENCE: GTTACACGAAAGTGAAC (((.(((....))))))
folding enthalpy (kcal/mol): -15.8
--
RESIDUE_SEQUENCE: GTAAGCGCGAAAGCGTAC (((..(((....))))))
folding enthalpy (kcal/mol): -9.28
--
RESIDUE_SEQUENCE: GATGTGGGAAACCACGTC ((.((((....)))).))
folding enthalpy (kcal/mol): -26.5
--
RESIDUE_SEQUENCE: GAAGCGGGAAACTGCTTC (((((.(....).)))))
folding enthalpy (kcal/mol): -40.4
--
RESIDUE_SEQUENCE: GCGACCTGTCGC ((((....))))
folding enthalpy (kcal/mol): -26.5
--
RESIDUE_SEQUENCE: GATCAACATGTTGATC ((((((....))))))
folding enthalpy (kcal/mol): -56.2
--
RESIDUE_SEQUENCE: GCTGAGCGAAAGCCTAGC (((..((....))..)))
folding enthalpy (kcal/mol): -16.4
